log10 of MIC values, listed per item
Test system: Helicobacter pylori
Test: Anti-bacterial activity against Helicobacter pylori Clinical isolate F4 measured after 72 hrs incubation by modified broth dilution method
Format: functional
observation.type: log10 of MIC (log10 of the value in µg/mL)

INSERT INTO measurements (compound, experimental_value) VALUES
  ('Cc1cc(OC(=O)N(C)C)c(C(C)C)cc1/N=N/c1ccc([N+](=O)[O-])cc1', 2.11),
  ('C=CCc1ccc(O)c(OC)c1 [EUGENOL]', 1.81),
  ('C=CCc1cc(/N=N/c2ccccc2C)c(O)c(OC)c1', 1.81),
  ('COc1ccc(/N=N/c2cc(C(C)C)c(OC(=S)N(C)C)cc2C)cc1', 2.11),
  ('COc1cc(C=O)cc(/N=N/c2ccc(C#N)cc2)c1O', 0.90),
  ('COc1ccc(/N=N/c2cc(C(C)C)c(O)cc2C)cc1', 0.30),
  ('Cc1ncc([N+](=O)[O-])n1CCO [METRONIDAZOLE]', 1.51);

---

Tested on: Helicobacter pylori
Test: Anti-bacterial activity against Helicobacter pylori Clinical isolate F4 measured after 72 hrs incubation by modified broth dilution method
Type: functional
observation.type: MIC (µg/mL)

INSERT INTO results (compound, observation_type, limit_qualifier, experimental_value) VALUES
  ('COc1cc(C=O)cc(/N=N/c2ccc(C)cc2)c1O', 'MIC', '=', 8),
  ('Cc1cc(O)c(C(C)C)cc1C1(c2cc(C(C)C)c(O)cc2C)OS(=O)(=O)c2ccccc21', 'MIC', '>', 128),
  ('Cc1ccc(C(C)C)c(/N=N/c2ccc([N+](=O)[O-])cc2)c1O', 'MIC', '=', 4),
  ('C=CCc1cc(/N=N/c2cccc([N+](=O)[O-])c2)c(O)c(OC)c1', 'MIC', '=', 128),
  ('CC(=O)Oc1cc(C)c(/N=N/c2ccc([N+](=O)[O-])cc2)cc1C(C)C', 'MIC', '>', 128),
  ('CC1(C)S[C@@H]2[C@H](NC(=O)[C@H](N)c3ccc(O)cc3)C(=O)N2[C@H]1C(=O)O [AMOXICILLIN]', 'MIC', '=', 0.064),
  ('Cc1ccc(C(C)C)c(O)c1 [THYMOL]', 'MIC', '=', 64),
  ('Cc1cc(O)c(C(C)C)cc1/N=N/c1ccc([N+](=O)[O-])cc1', 'MIC', '=', 4),
  ('Cc1cc(/N=N/c2ccc(Br)cc2)c(C(C)C)c(/N=N/c2ccc(Br)cc2)c1O', 'MIC', '>', 128),
  ('COc1ccc(/N=N/c2cc(C(C)C)c(OC(C)=O)cc2C)cc1', 'MIC', '=', 64),
  ('Cc1c(/N=N/c2ccccc2Cl)cc(C(C)C)c(O)c1/N=N/c1ccccc1Cl', 'MIC', '=', 128),
  ('COc1ccc(/N=N/c2cc(C(C)C)c(OC(=O)N(C)C)cc2C)cc1', 'MIC', '=', 64),
  ('COc1ccc(/N=N/c2cc(C(C)C)c(O)c(/N=N/c3ccc(OC)cc3)c2C)cc1', 'MIC', '=', 128),
  ('COc1ccc(/N=N/c2cc(C(C)C)c(OC)cc2C)cc1', 'MIC', '=', 128),
  ('COc1cc(C=O)cc(/N=N/c2cccc([N+](=O)[O-])c2)c1O', 'MIC', '=', 8),
  ('C=CCc1cc(/N=N/c2cccc(OC)c2)c(O)c(OC)c1', 'MIC', '>', 128),
  ('Cc1cc(OC(=S)N(C)C)c(C(C)C)cc1/N=N/c1ccc([N+](=O)[O-])cc1', 'MIC', '>', 128),
  ('C/C=C/c1ccc(O)c(OC)c1', 'MIC', '=', 32),
  ('C=CCc1cc(/N=N/c2ccc3c(c2)OCO3)c(O)c(OC)c1', 'MIC', '>', 128),
  ('Cc1cc(/N=N/c2ccccc2Cl)c(C(C)C)cc1O', 'MIC', '=', 2),
  ('C=CCc1cc(/N=N/c2ccc(Cl)cc2Cl)c(O)c(OC)c1', 'MIC', '>', 128),
  ('COc1cc(C=O)cc(/N=N/c2ccccc2Cl)c1O', 'MIC', '=', 64);
